# SYSTEM TESTED: HIV-1 Env of strain CAP45.2.00.G3 (HIV-1)
# EXPERIMENT: cell-based or functional assay
OBSERVABLE: neutralization IC50

NIH45-46 G54I IgG (antibody, name in Kabat numbering, V domains shown) VH: QVRLSQSGGQMKKPGESMRLSCRASGYEFLNCPINWIRLAPGRRPEWMGWLKPRIGAVNYARKFQGRVTMTRDVYSDTAFLELRSLTSDDTAVYFCTRGKYCTARDYYNWDFEHWGRGAPVTVSS VL: EIVLTQSPATLSLSPGETAIISCRTSQSGSLAWYQQRPGQAPRLVIYSGSTRAAGIPDRFSGSRWGADYNLSISNLESGDFGVYYCQQYEFFGQGTKVQVDI    > 50 µg/mL
NIH45-46^G54W IgG (antibody, name in Kabat numbering, V domains shown) VH: QVRLSQSGGQMKKPGESMRLSCRASGYEFLNCPINWIRLAPGRRPEWMGWLKPRWGAVNYARKFQGRVTMTRDVYSDTAFLELRSLTSDDTAVYFCTRGKYCTARDYYNWDFEHWGRGAPVTVSS VL: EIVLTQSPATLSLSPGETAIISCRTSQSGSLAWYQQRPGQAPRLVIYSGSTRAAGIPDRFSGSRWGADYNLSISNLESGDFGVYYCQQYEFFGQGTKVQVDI    6.6 µg/mL
NIH45-46^G54F IgG (antibody, name in Kabat numbering, V domains shown) VH: QVRLSQSGGQMKKPGESMRLSCRASGYEFLNCPINWIRLAPGRRPEWMGWLKPRFGAVNYARKFQGRVTMTRDVYSDTAFLELRSLTSDDTAVYFCTRGKYCTARDYYNWDFEHWGRGAPVTVSS VL: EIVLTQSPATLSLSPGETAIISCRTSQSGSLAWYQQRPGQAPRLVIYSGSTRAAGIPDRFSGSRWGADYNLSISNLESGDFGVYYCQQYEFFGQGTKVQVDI    > 50 µg/mL
NIH45-46 G54L IgG (antibody, name in Kabat numbering, V domains shown) VH: QVRLSQSGGQMKKPGESMRLSCRASGYEFLNCPINWIRLAPGRRPEWMGWLKPRLGAVNYARKFQGRVTMTRDVYSDTAFLELRSLTSDDTAVYFCTRGKYCTARDYYNWDFEHWGRGAPVTVSS VL: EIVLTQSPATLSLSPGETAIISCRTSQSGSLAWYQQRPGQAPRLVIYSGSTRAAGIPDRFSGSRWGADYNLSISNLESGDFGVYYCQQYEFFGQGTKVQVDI    > 50 µg/mL
NIH45-46 G54M IgG (antibody, name in Kabat numbering, V domains shown) VH: QVRLSQSGGQMKKPGESMRLSCRASGYEFLNCPINWIRLAPGRRPEWMGWLKPRMGAVNYARKFQGRVTMTRDVYSDTAFLELRSLTSDDTAVYFCTRGKYCTARDYYNWDFEHWGRGAPVTVSS VL: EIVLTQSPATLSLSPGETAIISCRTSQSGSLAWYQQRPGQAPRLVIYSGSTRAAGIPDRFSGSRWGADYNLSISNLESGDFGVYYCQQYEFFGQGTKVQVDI    > 50 µg/mL

Requested field: neutralization IC50. Item: NIH45-46^G54Y IgG (antibody, name in Kabat numbering, V domains shown) VH: QVRLSQSGGQMKKPGESMRLSCRASGYEFLNCPINWIRLAPGRRPEWMGWLKPRYGAVNYARKFQGRVTMTRDVYSDTAFLELRSLTSDDTAVYFCTRGKYCTARDYYNWDFEHWGRGAPVTVSS VL: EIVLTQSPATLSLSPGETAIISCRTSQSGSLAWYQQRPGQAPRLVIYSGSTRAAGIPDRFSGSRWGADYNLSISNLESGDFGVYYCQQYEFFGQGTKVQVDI 45 µg/mL

What about this binder? NIH45-46 G54H IgG (antibody, name in Kabat numbering, V domains shown) VH: QVRLSQSGGQMKKPGESMRLSCRASGYEFLNCPINWIRLAPGRRPEWMGWLKPRHGAVNYARKFQGRVTMTRDVYSDTAFLELRSLTSDDTAVYFCTRGKYCTARDYYNWDFEHWGRGAPVTVSS VL: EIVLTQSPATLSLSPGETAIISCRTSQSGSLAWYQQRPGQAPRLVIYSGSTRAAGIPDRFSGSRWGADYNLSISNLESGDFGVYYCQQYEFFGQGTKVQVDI > 50 µg/mL
